# target under test: Metabotropic glutamate receptor 8 (Rattus norvegicus)
# assay overview: mGluR8 Gi/Go-coupled signaling modulation – cell-based, rat, thallium flux, HTS, primary screen (AID 488969)
# test settings: HEK293 rat mGluR8, GIRK thallium flux, FluoZin2; at 10 µM; stronger effect = higher value; submaximal glutamate (EC20) added with thallium
In all, about 110,000 compounds were measured (“z-score”: median about -0.1, highest 2% from about 2 on). Only a selection was taken, and the highest values are over-represented in it overall.
Quick list: z-score per entry.
No unit in the answer, only the number.

Known z-score results, listed for orientation:
Cc1c(C(C)(C)C)c(C=S)n2ccccc12 | -0.503
Cc1cccc(-n2c(SCc3cc(=O)n4ccsc4n3)nc3ccccc3c2=O)c1 | -0.276
COc1ccc(S(=O)(=O)N(CCc2ccccc2)CC(=O)NC(C)C)cc1 | -0.387
CC1CCCC(C)N1C(=O)CSc1nnnn1-c1cccc2c1CCCC2 (centres undefined) | -0.621
COc1ccc2c(c1)-c1c(sn(-c3ccccc3)c1=S)C(C)(C)N2 | -0.192
CCOC(=O)N1CCC(n2c(=S)[nH]c3ccccc3c2=O)CC1 | 0.582
CCNC(=O)CN(CCc1ccccc1)S(=O)(=O)c1ccc(OC)cc1 | -0.329
Fc1ccccc1N1CCN(CCCNc2ccc3nncn3n2)CC1 | 0.731
CCOc1cc(CNCCSc2nnnn2C)cc(Br)c1OCc1ccccc1F | 0.196
CCC(C)N1CC(C(=O)O)CC1=O (centres undefined) | -0.0459

Now examine the next entry.
API: value(readout=z-score, system=Metabotropic glutamate receptor 8 (Rattus norvegicus)) for record "C1CCCC(N2CCNCC2)CC1"
0.33

###

# target under test: Metabotropic glutamate receptor 8 (Rattus norvegicus) (UniProt P70579)
# Sequence (P70579 whole entry, looked up): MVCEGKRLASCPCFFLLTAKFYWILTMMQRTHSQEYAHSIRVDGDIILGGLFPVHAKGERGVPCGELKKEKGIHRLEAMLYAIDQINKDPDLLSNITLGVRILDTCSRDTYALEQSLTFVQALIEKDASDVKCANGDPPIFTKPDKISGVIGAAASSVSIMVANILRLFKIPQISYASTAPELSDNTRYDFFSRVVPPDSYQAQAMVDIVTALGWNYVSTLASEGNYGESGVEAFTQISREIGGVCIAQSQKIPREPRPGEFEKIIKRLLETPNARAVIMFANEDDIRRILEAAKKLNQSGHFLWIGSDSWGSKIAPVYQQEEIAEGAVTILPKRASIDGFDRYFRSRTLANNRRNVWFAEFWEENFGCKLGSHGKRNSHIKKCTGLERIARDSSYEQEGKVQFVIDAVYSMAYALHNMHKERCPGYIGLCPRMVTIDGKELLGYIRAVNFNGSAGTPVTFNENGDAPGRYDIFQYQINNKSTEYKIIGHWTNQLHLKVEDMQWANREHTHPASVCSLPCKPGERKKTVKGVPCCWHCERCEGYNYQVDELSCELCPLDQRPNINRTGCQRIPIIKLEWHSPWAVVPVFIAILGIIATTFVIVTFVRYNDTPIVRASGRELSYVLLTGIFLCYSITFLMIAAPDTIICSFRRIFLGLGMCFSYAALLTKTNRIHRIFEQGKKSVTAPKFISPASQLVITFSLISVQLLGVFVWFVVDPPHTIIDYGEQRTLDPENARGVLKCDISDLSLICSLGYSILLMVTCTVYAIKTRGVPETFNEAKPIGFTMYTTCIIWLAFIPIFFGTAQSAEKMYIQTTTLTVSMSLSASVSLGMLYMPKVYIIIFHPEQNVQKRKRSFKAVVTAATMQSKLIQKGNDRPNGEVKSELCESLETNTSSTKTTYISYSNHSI
# assay overview: mGluR8 Gi/Go-coupled signaling modulation – cell-based, rat, thallium flux, HTS, primary screen (AID 488969)
# test settings: HEK293 rat mGluR8, GIRK thallium flux, FluoZin2; at 10 µM; stronger effect = higher value; submaximal glutamate (EC20) added with thallium
In all, about 110,000 compounds were measured (“z-score”: median about -0.1, highest 2% from about 2 on). This is one part of a sample in which the highest values are shown more often than they occur. Calls of active or inactive are those of the source.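 Rule for the calls: active = z-score in the third read window above 3 or below -3; inactive = the rest.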
Quick list: z-score per entry.

Known z-score results, listed for orientation:
Cn1c(=O)c2cc(S(=O)(=O)N3CCOCC3)ccc2n(C)c1=O | 0.139
CC(C)CCn1c(CN2CCN(Cc3ccccc3)CC2)nc2c1c(=O)n(C)c(=O)n2C | 0.709
CC(C)CCn1c(CN2CCN(Cc3ccccc3)CC2)nc2c1c(=O)[nH]c(=O)n2C | 5.8 (active)
O=C(CNC1CCCCCC1)Nc1ccccc1N1CCCCC1 | -0.23
Cn1c(C(=O)NCc2ccccn2)cc2c(=O)n(C)c3ccccc3c21 | 0.138

Can you look up the measured z-score of "Cc1nc(N2CCN(C)CC2)c2sc(=S)n(C)c2n1" for me?
0.624

Can you look up the measured z-score of "CCC(=O)Nc1ccc(N2CCCCC2)cc1" for me?
-0.169

Can you look up the measured z-score of "CCN1CCN(c2ccc(NC(=O)CCc3c(C)nc4c(-c5ccccc5)c(C)nn4c3C)cc2)CC1" for me?
3.06 (active)

Can you look up the measured z-score of "Cc1nc2c(-c3ccccc3)c(C)nn2c(C)c1CCC(=O)O" for me?
0.235

Can you look up the measured z-score of "Cc1ccc(C)c(NC(=O)CNS(=O)(=O)c2ccccc2)c1" for me?
-0.144

Can you look up the measured z-score of "CN1CCN(Cc2nc3c(c(=O)[nH]c(=O)n3C)n2CCc2ccccc2)CC1" for me?
-0.00916

###

# target under test: Metabotropic glutamate receptor 8 (Rattus norvegicus) (UniProt P70579)
# assay overview: mGluR8 Gi/Go-coupled signaling modulation – cell-based, rat, thallium flux, HTS, primary screen (AID 488969)
# test settings: HEK293 rat mGluR8, GIRK thallium flux, FluoZin2; at 10 µM; stronger effect = higher value; submaximal glutamate (EC20) added with thallium
In all, about 110,000 compounds were measured (“z-score”: median about -0.1, highest 2% from about 2 on). The full list was thinned out, with the highest values kept by preference.
Returns the class for an entry based on its z-score. Class ranges: low range = under -0.3, mid range = from -0.3 up to 0.1, high range = 0.1 and over

Here are 2 molecules together with their reported answers.
O=C(NC(=S)Nc1ccc(N2CCCCC2)c(Cl)c1)c1ccc2c(c1)OCCO2 | high range
Cc1cc(C)n(-c2nc3ccccc3nc2N2CCN(C(=O)c3ccc(Cl)cc3)CC2)n1 | low range

Could you place "CCc1c(C)nc2ncnn2c1Nc1ccc(C(C)=O)cc1" in its proper category? Many thanks.
mid range

Could you place "Cc1cccc(OCCSc2nc3c([nH]2)c(=N)ncn3Cc2ccccc2)c1" in its proper category? Many thanks.
mid range

Could you place "O=C(c1ccco1)N1CCN(S(=O)(=O)c2ccc3[nH]c(=O)oc3c2)CC1" in its proper category? Many thanks.
high range

Could you place "COc1cc(C(=O)Nc2ccc3c(c2)OCCO3)ccc1OC(C)C" in its proper category? Many thanks.
high range

Could you place "CC(C)(C)OC(=O)COc1cc(OCC(=O)OC(C)(C)C)c2c(=O)cc(-c3ccccc3)oc2c1" in its proper category? Many thanks.
low range

Could you place "CC(C)(C)OC(=O)COc1cc(O)c2c(=O)cc(-c3ccccc3)oc2c1" in its proper category? Many thanks.
high range

Could you place "COc1ccc(C(=O)Nc2ccc3c(c2)OCCO3)cc1" in its proper category? Many thanks.
mid range

Could you place "Cc1cc(NS(=O)(=O)c2ccc(NC(=O)c3cc(-c4ccccc4Cl)nc4ccccc34)cc2)no1" in its proper category? Many thanks.
low range

Could you place CC(NS(=O)(=O)c1ccc(Cl)cc1)C(=O)NCc1ccco1 (stereo not drawn) in its proper category? Many thanks.
mid range

Could you place "COc1ccccc1NC(=O)c1sc2nc(-c3ccco3)ccc2c1N" in its proper category? Many thanks.
high range

Could you place "CCOc1ccc(C(=O)Nc2ccc3c(c2)OCCO3)cc1OC" in its proper category? Many thanks.
low range

###

# target under test: Metabotropic glutamate receptor 8 (Rattus norvegicus) (UniProt P70579)
# assay overview: mGluR8 Gi/Go-coupled signaling modulation – cell-based, rat, thallium flux, HTS, primary screen (AID 488969)
# test settings: HEK293 rat mGluR8, GIRK thallium flux, FluoZin2; at 10 µM; stronger effect = higher value; submaximal glutamate (EC20) added with thallium
The full ranking holds about 110,000 compounds; the median of “z-score” is about -0.1, and the highest 2% start at about 2. What follows is part of a selection rich in the highest values, with near analogues and random picks from the rest.
Assign class by z-score: not lower than -0.005 means Fulfilled; lower than -0.005 means Not fulfilled.

Here are 5 molecules together with their reported answers.
COc1cccc(CNC(=O)Cn2cc3c(n2)CCCCC3)c1 | Fulfilled
CCn1c(Cc2ccc(OC)cc2)nnc1SCC(=O)N1CCN(c2ccccc2)CC1 | Fulfilled
Cc1cc(OCC(=O)Nc2ccc(F)c(F)c2)nc(C(C)C)n1 | Fulfilled
CCCc1cc(=O)[nH]c(SCC(=O)NC(=O)OCC)n1 | Not fulfilled
CCc1ccc2[nH]c(=O)c(CN(CCN(C)C)C(=O)Nc3ccccc3)cc2c1 | Not fulfilled

In the following, a different molecule is considered.
Is z-score for CC1CCC(NC(=O)Cn2cc3c(n2)CCCC3)CC1 (stereo unspecified) at or above -0.005?
Fulfilled

###

# target under test: Metabotropic glutamate receptor 8 (Rattus norvegicus) (UniProt P70579)
# assay overview: mGluR8 Gi/Go-coupled signaling modulation – cell-based, rat, thallium flux, HTS, primary screen (AID 488969)
# test settings: HEK293 rat mGluR8, GIRK (G protein-gated inwardly rectifying potassium channel) thallium flux, FluoZin2; at 10 µM; stronger effect = higher value; submaximal glutamate (EC20) added with thallium
Whole data set: some 110,000 compounds, median “z-score” near -0.1, cut for the highest 2% near 2. The sample holds the highest values, similar compounds and a random draw of the others, so the mix is not that of the screen.
Returns the class for an entry based on its z-score. Class ranges: class A: < -0.3; class B: ≥ -0.3 and < 1; class C: ≥ 1

O=[N+]([O-])c1ccc(/C=N/NC(=S)Nc2ccccc2)o1 | class C
COc1ccc(/C=N/n2c(N)nc(-c3ccccc3)c2-c2ccccc2)cc1 | class A
COc1cc2c(cc1OC)C(C(=O)NCCN1CCOCC1)C1c3ccccc3CCN1C2=O (stereo unspecified) | class A
Cn1c(=O)c2c(nc(SCc3ccccc3)n2Cc2ccc(Cl)cc2)n(C)c1=O | class A
O=[N+]([O-])c1ccc(/C=N/NC(=S)Nc2ccccc2C(F)(F)F)o1 | class C
O=C(CNc1ccccc1)N/N=C/c1ccc([N+](=O)[O-])o1 | class A
CC1(C)C2CC=C(/C=N/n3cnnc3)C1C2 (stereo unspecified) | class C
CCCSc1nnc(Nc2ccccc2C)s1 | class C

Could you place "C/C(N)=C(/C#N)C(=O)CSc1nnc(Nc2ccccc2C)s1" in its proper category? Many thanks.
class B

Could you place CC1(C)C2CC=C(/C=N/NC(=O)c3ccc(O)cc3)C1C2 (stereo unspecified) in its proper category? Many thanks.
class B

Could you place "COC(=O)N/N=C/c1ccc([N+](=O)[O-])o1" in its proper category? Many thanks.
class B
